target: DLG1_2, Q12959; assay: holdup assay; parameters: key: below the threshold = too weak to quantify, mostly under pKd 3.1 to 4; conditions: plain residues with an end cap or a label only (N-terminal biotin on a linker: ado-ado)
Sequence (Q12959 314-412): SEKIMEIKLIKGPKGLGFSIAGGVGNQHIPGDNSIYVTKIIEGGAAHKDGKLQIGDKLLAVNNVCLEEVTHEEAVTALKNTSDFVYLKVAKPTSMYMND
Listed below: pKd values for each entry.
property name: pKd

{"columns": ["binder", "property name", "reading"],
 "data": [
  ["QSYPSKHDYV [CLDN18, P56856]", "pKd", 3.71],
  ["QLSFNTDTLC [ABCA2, Q9BZC7]", "pKd", 3.88],
  ["MQHQRTHTRV [ZSCAN30, Q86W11]", "pKd", 5.12],
  ["ARGPPRESEV [FAM110D, Q8TAY7]", "pKd", 5.48],
  ["NIAESLESLV [PTPRZ1, P23471]", "pKd", 5.31],
  ["TGLWKHETTV [ADGRA3, Q8IWK6]", "pKd", 5.48],
  ["TNSRHGETTV [FZD2, Q14332]", "pKd", 5.17]
]}

The measured values listed here are drawn from paper PMC9482650.
